- Tested on: DRAK1
- Construct: gene STK17A
- recorded_conditions: concentration: 1 μM, replicates: in singlicate; n = 1;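 also: KINOMEscan kinase panel screen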
reported_metric: %Inh

1. Cl.c1ccc(Cn2ncc3cc(Nc4ncnc5ccccc45)ccc32)cc1 79%
2. Nc1nc(-c2cccnc2)c(-c2ccnc3ccccc23)s1 32%
3. CN1c2ccc(-c3ccc(C(=O)NCCO)cc3)cc2-c2[nH]ncc2S1(=O)=O 24%
4. Cc1ccc(C)c(NC(=O)NCCNc2ccnc(Nc3ccc(F)cc3)n2)c1 5%
5. Fc1cccc(COc2ccc(Nc3ncnc4cc[nH]c34)cc2Cl)c1 55%

====

- System: LATS2
- recorded_conditions: concentration: 1 μM, replicates: in singlicate; n = 1

compound	%Inh (%)
Nc1nc(-c2cccnc2)c(-c2ccnc3ccccc23)s1	26
O=C(Nc1n[nH]c2nc(-c3ccco3)c(Br)cc12)c1ccc(CN2CCCC2)cc1.O=C(O)[C@H](O)[C@@H](O)C(=O)O	0
CNc1nccc(-c2c(-c3ccc(F)cc3)ncn2C2CCN(C)CC2)n1	0
CC(C)(C)OC(=O)NC1CCCN(c2cc(-c3ccc4c(N)n[nH]c4c3)nc(N)n2)C1 (stereo not drawn)	0
Clc1ccc(-c2cc(-c3c[nH]nc3-c3ccccn3)ccn2)cc1	0
CS(=O)(=O)CCNCc1nc(-c2ccc3ncnc(Nc4ccc(OCc5cccc(F)c5)c(Cl)c4)c3c2)cs1.Cl	9
COc1ccc(Nc2nccc(N3CCC(NC(=O)c4cccc(NC(C)=O)c4)C3)n2)cc1 (stereo not drawn)	9
Clc1cccc(-c2nc(Nc3ccncc3)c3ccccc3n2)c1	0
O=C(Nc1ccccc1)Nc1ccc(Oc2ccc3nccn3n2)cc1	0
COc1cc2c(Nc3cccc(NC(=O)c4ccccc4)c3)ncnc2cc1OCCCN1CCOCC1	0
O=C(Nc1ccccc1F)NC1CCN(c2ccnc(Nc3ccc(F)cc3)n2)C1 (stereo not drawn)	0
CCn1c(-c2ccncc2)nc2cnccc21	9
CS(=O)(=O)CCNCc1ccc(-c2ccc3ncnc(Nc4ccc(OCc5ccccc5)c(Cl)c4)c3c2)o1.Cl	11
NC(=O)c1sc(-n2cnc3ccccc32)cc1OCc1ccccc1F	0
CCc1nc(-c2cccc(N(C)S(=O)(=O)c3ccccc3)c2)c(-c2ccnc(Nc3ccc(N4CCN(C(C)=O)CC4)nc3)n2)s1	20
Cc1cccc(-c2nc(Nc3ccc4[nH]nnc4c3)c3ccccc3n2)n1	0
Cl.Cl.c1ccc(-c2cc3ccncc3cc2OC2CCNCC2)cc1	50
Fc1cccc(COc2ccc(Nc3ncnc4sc(-c5ccc[nH]5)cc34)cc2Cl)c1	0

====

- System: IRAK1
- recorded_conditions: concentration: 1 μM, replicates: in singlicate; n = 1
Label N if %Inh falls below 10%; label Y in every other case.

compound	classification
FC(F)(F)c1ccc(-c2nn3ncccc3c2-c2ccnc(Nc3cccc(C(F)(F)F)c3)n2)cc1 [GW828205]	N
CCc1nc(-c2cccc(C)c2)c(-c2ccnc(NC(=O)c3ccccc3)c2)s1	Y
c1ccc(-c2ccc3c(-c4ccnc(Nc5ccc6c(c5)OCCO6)n4)cnn3n2)cc1 [GW818941]	N
CSc1nn2c(=O)cc(N3CCOCC3)nc2n1Cc1cccc(Cl)c1Cl [GSK2347225]	N
CC(C)(C)OC(=O)NC1CCCN(c2cc(-c3ccc4c(N)n[nH]c4c3)nc(N)n2)C1 (stereo not drawn) [GSK2286096]	N
CC(C)N1CCC(n2cnc(-c3ccc(F)cc3)c2-c2ccnc(N)n2)CC1 [SB-223132]	N
N#Cc1ccc(Oc2ccc(Nc3ncnc4cc[nH]c34)cc2Cl)cc1	Y
Fc1ccc(-c2ncn(CCCNCc3ccccc3)c2-c2ccncc2)cc1	Y
Cl.Fc1ccccc1COc1ccc(Nc2ncnc3ccc(-c4nnc(C(F)(F)F)o4)cc23)cc1Cl [GW424170]	N
O=c1cc(N2CCOCC2)nc2n(Cc3cccc(Cl)c3)ccn12 [GSK2296823]	Y
COC(=O)c1c(-c2ccccc2)c2cc(Cl)ccc2c(=O)n1Cc1ccc(S(C)(=O)=O)cc1	Y
Fc1cccc(COc2ccc(Nc3ncnc4sc(-c5ccc[nH]5)cc34)cc2Cl)c1 [GW707818]	Y
CCCc1ccc(S(=O)(=O)NC2CCN(c3ccnc(Nc4ccc(OC)cc4)n3)C2)cc1 (stereo not drawn) [GSK1379737]	Y
Cl.c1ccc(Cn2ccc3cc(Nc4ncnc5ccccc45)ccc32)cc1 [GW275568]	N
Cn1cc(-c2ccc3c(c2)CCN3C(=O)Cc2cccc(C(F)(F)F)c2)c2c(N)ncnc21 [GSK2606414]	N
Fc1ccc(Nc2nccc(-c3c(-c4ccc(Cl)cc4)nn4ncccc34)n2)cc1F [GW829058]	Y
OCCOCCn1ccc2ncnc(Nc3ccc(Oc4cccc(Cl)c4)c(Cl)c3)c21	N
Cc1ccc(C)c(NC(=O)NCCNc2ccnc(Nc3ccc(F)cc3)n2)c1 [GSK1379878]	N
